remaining activity at 10 µM values by entry
- TARGET DESC: Pim-1 (Homo sapiens, UniProt P11309)
- Construct: made in house; host or cells: bacteria
- Sequence (P11309 whole entry): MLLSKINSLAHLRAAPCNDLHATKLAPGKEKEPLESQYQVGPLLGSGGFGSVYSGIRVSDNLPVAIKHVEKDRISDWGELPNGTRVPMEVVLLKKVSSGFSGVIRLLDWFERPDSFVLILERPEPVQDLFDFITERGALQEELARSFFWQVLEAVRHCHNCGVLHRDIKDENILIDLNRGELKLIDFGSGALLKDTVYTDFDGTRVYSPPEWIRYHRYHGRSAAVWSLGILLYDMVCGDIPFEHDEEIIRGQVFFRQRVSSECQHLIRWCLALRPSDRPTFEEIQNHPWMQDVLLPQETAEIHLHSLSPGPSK
- ASSAY NAME: ADP-Glo in vitro kinase inhibition assay, Pim-1
- Assay type: biochemical
- CONDITION PARAMETERS: 10 μM compound, 10 μM ATP; read-out: PIM1 % residual activity

- MOLECULE: "COC(=O)/C=C/c1c[nH]c2cc3cnccc3cc12 [Compound 8]"
  remaining activity at 10 µM: "8%"
- MOLECULE: "Clc1cc(-c2c[nH]c3cc4cnccc4cc23)ccn1 [Compound 2]"
  remaining activity at 10 µM: "14%"
- MOLECULE: "CC(C)(C)OC(=O)CCc1c[nH]c2cc3cnccc3cc12 [Compound 11]"
  remaining activity at 10 µM: "60%"
- MOLECULE: "Nc1ccc(-c2c[nH]c3cc4cnccc4cc23)cn1 [Compound 3]"
  remaining activity at 10 µM: "7%"
- MOLECULE: "c1cc2cc3c(-c4cn[nH]c4)c[nH]c3cc2cn1 [Compound 16]"
  remaining activity at 10 µM: "0%"
- MOLECULE: "CC(C)(C)OC(=O)/C=C/c1c[nH]c2cc3cnccc3cc12 [Compound 9]"
  remaining activity at 10 µM: "21%"
- MOLECULE: "c1cc2cc3c(-c4cc[nH]n4)c[nH]c3cc2cn1 [Compound 15]"
  remaining activity at 10 µM: "0%"
- MOLECULE: "COC(=O)CCc1c[nH]c2cc3cnccc3cc12 [Compound 10]"
  remaining activity at 10 µM: "52%"
- MOLECULE: "c1c[nH]c(-c2c[nH]c3cc4cnccc4cc23)c1 [Compound 17]"
  remaining activity at 10 µM: "33%"

====

- TARGET DESC: HsHaspin-kd (Homo sapiens)
- Construct: kinase domain, amino acids 470–798 cloned in pGEX-6P-3; made in house; host or cells: bacteria
- Sequence (Q8TF76 470-798): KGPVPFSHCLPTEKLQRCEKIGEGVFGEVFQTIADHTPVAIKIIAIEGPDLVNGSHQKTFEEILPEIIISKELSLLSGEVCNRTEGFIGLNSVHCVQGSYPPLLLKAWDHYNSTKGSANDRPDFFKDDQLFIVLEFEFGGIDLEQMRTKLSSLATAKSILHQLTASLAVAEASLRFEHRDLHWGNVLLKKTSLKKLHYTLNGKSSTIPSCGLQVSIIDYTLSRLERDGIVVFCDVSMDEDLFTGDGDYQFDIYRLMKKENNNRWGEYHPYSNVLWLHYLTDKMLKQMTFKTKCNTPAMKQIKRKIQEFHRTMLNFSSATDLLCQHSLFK
- ASSAY NAME: ADP-Glo in vitro kinase inhibition assay, Haspin
- Format: biochemical
- CONDITION PARAMETERS: 1 μM compound, 10 μM ATP, duplicate; read-out: Haspin % residual activity
remaining activity at 1 µM less than 9% is true; remaining activity at 1 µM greater than or equal to 9% is false.

- ITEM SMILES: "c1cc2cc3c(-c4cc[nH]n4)c[nH]c3cc2cn1"
  CLASS NAME: "true"
- ITEM SMILES: "CC(C)(C)OC(=O)CCc1c[nH]c2cc3cnccc3cc12"
  CLASS NAME: "false"
- ITEM SMILES: "COC(=O)CCc1c[nH]c2cc3cnccc3cc12"
  CLASS NAME: "false"
- ITEM SMILES: "c1cc2cc3c(-c4cn[nH]c4)c[nH]c3cc2cn1"
  CLASS NAME: "true"
- ITEM SMILES: "c1c[nH]c(-c2c[nH]c3cc4cnccc4cc23)c1"
  CLASS NAME: "true"
- ITEM SMILES: "COC(=O)/C=C/c1c[nH]c2cc3cnccc3cc12"
  CLASS NAME: "false"
- ITEM SMILES: "CC(C)(C)OC(=O)/C=C/c1c[nH]c2cc3cnccc3cc12"
  CLASS NAME: "false"
- ITEM SMILES: "Nc1ccc(-c2c[nH]c3cc4cnccc4cc23)cn1"
  CLASS NAME: "true"
